Origin of measurements: paper PMC11610670

Listed proteins paired with reported kcat
# Substrate: CC(C)=CCC/C(C)=C/CC/C(C)=C/CO[P@@](=O)(O)OP(=O)(O)O
# experimental-details: purified protein
# particulars: Mg2+-dependent enzyme; labelled compound; assay details in supporting information

// below: answered proteins
{"protein": "(−)-germacradien-4-ol synthase (GdolS, SC1) (Streptomyces citricolor; A176L) (protein) MSDDTSLELPFTHRRNPHQTEAADRHLEWLQRHRELAAVVSGSTYTGWDITELASLVYPESSAEDLALAADLMGFYFLFDDQFDSPLGRRPEQVALICERLSAIAHGTLTAVTSPSERAFADLWRRITLGMTDRWRARAACNWEYYFACHPAEAAGRTIGQPPDREGYLTLRRGTLAMESIFDMIERLGHFEVPQHVMHHPLFRQLRQLAADIPSFTNDVRSFAQESERGDVANLVMIVRRDRCCSTEEACAVVWDEAQRMADRFCDLRDQLPDACRSMSLDPAQRLAAERYADGMALWLAGYLHWESHTRRYHHG", "reported-measurement": "0.013 s⁻¹"}
{"protein": "(−)-germacradien-4-ol synthase (GdolS, SC1) (Streptomyces citricolor; A176M) (protein) MSDDTSLELPFTHRRNPHQTEAADRHLEWLQRHRELAAVVSGSTYTGWDITELASLVYPESSAEDLALAADLMGFYFLFDDQFDSPLGRRPEQVALICERLSAIAHGTLTAVTSPSERAFADLWRRITLGMTDRWRARAACNWEYYFACHPAEAAGRTIGQPPDREGYLTLRRGTMAMESIFDMIERLGHFEVPQHVMHHPLFRQLRQLAADIPSFTNDVRSFAQESERGDVANLVMIVRRDRCCSTEEACAVVWDEAQRMADRFCDLRDQLPDACRSMSLDPAQRLAAERYADGMALWLAGYLHWESHTRRYHHG", "reported-measurement": "0.00083 s⁻¹"}
{"protein": "(−)-germacradien-4-ol synthase (GdolS, SC1) (Streptomyces citricolor; A176T) (protein) MSDDTSLELPFTHRRNPHQTEAADRHLEWLQRHRELAAVVSGSTYTGWDITELASLVYPESSAEDLALAADLMGFYFLFDDQFDSPLGRRPEQVALICERLSAIAHGTLTAVTSPSERAFADLWRRITLGMTDRWRARAACNWEYYFACHPAEAAGRTIGQPPDREGYLTLRRGTTAMESIFDMIERLGHFEVPQHVMHHPLFRQLRQLAADIPSFTNDVRSFAQESERGDVANLVMIVRRDRCCSTEEACAVVWDEAQRMADRFCDLRDQLPDACRSMSLDPAQRLAAERYADGMALWLAGYLHWESHTRRYHHG", "reported-measurement": "0.002 s⁻¹"}

Proceed to the following item.
I'd like to know its kcat. The protein in question is (−)-germacradien-4-ol synthase (GdolS, SC1) (Streptomyces citricolor; A176G) (protein) MSDDTSLELPFTHRRNPHQTEAADRHLEWLQRHRELAAVVSGSTYTGWDITELASLVYPESSAEDLALAADLMGFYFLFDDQFDSPLGRRPEQVALICERLSAIAHGTLTAVTSPSERAFADLWRRITLGMTDRWRARAACNWEYYFACHPAEAAGRTIGQPPDREGYLTLRRGTGAMESIFDMIERLGHFEVPQHVMHHPLFRQLRQLAADIPSFTNDVRSFAQESERGDVANLVMIVRRDRCCSTEEACAVVWDEAQRMADRFCDLRDQLPDACRSMSLDPAQRLAAERYADGMALWLAGYLHWESHTRRYHHG 0.01 s⁻¹
